System: K-562 leukemia
ASSAY DETAILS: NCI tumour cell line growth inhibition, 48 h
QUANTITY NAME: TGI

Reference set (5 entries):
Cc1nc2sc3c(N)ncnc3c2c(C)c1C : > 25 µM
COc1ccc(-c2cn(-c3ccc(OC)c(OC)c3)c(=O)[nH]2)cc1 : > 100 µM
OC1CCCC2CCC[N-]C12.OC1CCCC2CCC[N-]C12.[O]=[V][OH] (stereo not drawn) : 14.4 µM
CCNC1=C(NC(=O)c2ccccc2)C(=O)c2ccccc2C1=O : > 100 µM
CCN1C(=O)N(CC)C2C1NN=c1s/c(=C3\C(=O)N(C4CCCC4)c4ccccc43)c(=O)n12 (stereo not drawn) : > 100 µM

Input line: # query: TGI | item Nc1ncc(-c2ccc3ncnc(N4CCc5ccc(Cl)cc54)c3c2)cc1C(F)(F)F | system: K-562 leukemia
Output line: > 100 µM

Input line: # query: TGI | item O=C(CCC(=O)Nc1cccc(C(F)(F)F)c1)CC(=O)c1ccc2ccccc2c1 | system: K-562 leukemia
Output line: > 100 µM

Input line: # query: TGI | item O=C1OCC(c2ccc(Cl)cc2)=C1Cl | system: K-562 leukemia
Output line: 92.6 µM

Input line: # query: TGI | item O=C1C=C(OCC=C(C(F)(F)F)C(F)(F)F)c2ccccc2C1=O | system: K-562 leukemia
Output line: 5.42 µM

Input line: # query: TGI | item Cn1c(=O)cc2[nH]c3ccccc3n2c1=O | system: K-562 leukemia
Output line: > 100 µM

* * *

Tested on: SF-295 CNS
ASSAY DETAILS: NCI tumour cell line growth inhibition, 48 h
Please mark class 1 if the recorded TGI is equal to or greater than 30 µM, and class 0 if it falls below.

Solved entries (count: 5):
NS(=O)(=O)c1ccc(NC(=O)C2C(=O)C(=O)N(c3ccc(S(N)(=O)=O)cc3)C2=O)cc1 (centres undefined) : class 1
c1ccc(-c2c(-c3cccs3)[nH]c(-c3cccs3)c2-c2ccccn2)nc1 : class 1
CCCCCCCCCCNCCSS(=O)(=O)O : class 0
C=C1C(=O)O[C@H]2[C@H]1CC/C(COC(=O)/C=C\C(=O)NCc1ccc(Cn3c(=O)sn(CCI)c3=O)cc1)=C\CC[C@@]1(C)O[C@@H]21 : class 1
C#C[C@@]1(O)[C@@H](CO)O[C@@H](n2cc(C(F)(F)F)c3c(N)ncnc32)[C@@H]1O : class 0

Input line: Check if TGI >= 30 µM (inclusive). Item: COC(=O)Cc1c([C@H]2[C@H](CC(=O)OC)c3ccccc3N2S(=O)(=O)c2ccc(C)cc2)[nH]c2ccccc12
Output line: class 1

Input line: Check if TGI >= 30 µM (inclusive). Item: c1ccc2c(c1)Cc1c(Cc3csc4ccccc34)ccc3cccc-2c13
Output line: class 1

Input line: Check if TGI >= 30 µM (inclusive). Item: COc1ccc(-c2cc(-c3ccc(Cl)cc3)nc(NCCCCNc3ccnc4cc(Cl)ccc34)n2)cc1
Output line: class 0

Input line: Check if TGI >= 30 µM (inclusive). Item: O=C(Nc1cc(Cl)cc(Cl)c1)c1cccc(NC2=C(Cl)C(=O)N(Cc3ccccc3)C2=O)c1
Output line: class 1

Input line: Check if TGI >= 30 µM (inclusive). Item: COc1cc([C@@H]2c3cc4c(cc3[C@@H](OC(=O)c3cccc(N)c3)C3COC(=O)[C@@H]32)OCO4)cc(OC)c1O (some centres undefined)
Output line: class 1

All figures here come from PubChem BioAssay (NCI).
